experiment: recombinant UMI read abundance after kanamycin selection (control-corrected) (log10(CPM+1)); higher = more efficient recombination; extreme values may be limits of the assay; sequences stand for … in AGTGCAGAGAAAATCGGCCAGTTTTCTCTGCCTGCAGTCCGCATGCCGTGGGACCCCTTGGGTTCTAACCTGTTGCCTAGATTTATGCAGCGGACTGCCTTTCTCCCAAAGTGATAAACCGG…AGGTTGGTTTCACT; site = the 11-nt donor;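 note: IS621 bridge recombinase in Escherichia coli cells against a fixed T5 target plasmid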
Binary classification by recombinant UMI read abundance (log10), with 0.5 as an inclusive lower bound for t; all other cases are f.

Please indicate if the recorded recombinant UMI read abundance (log10) for CTCGTATCATGGACCGGTTTTCCCGGTAATCCGTATTTGAG (site CTCGTATCTCT) meets or exceeds 0.5.
t

Decide: is the reported value of recombinant UMI read abundance (log10) for CGGCACCCATGGACCGGTTTTCCCGGTAATCCGTATTTGTT (site CGGCACCCTAA) equal to or greater than 0.5?
f

Check the entry TCTAGAACATGGACCGGTTTTCCCGGTAATCCGTATTTGTC (site TCTAGAACTGA) : does recombinant UMI read abundance (log10) equal or exceed 0.5?
f

Is it the case that TACTTTACATGGACCGGTTTTCCCGGTAATCCGTATTTGCT (site TACTTGACTAG) has recombinant UMI read abundance (log10) reaching or exceeding 0.5?
f

Given GGTTTCACATGGACCGGTTTTCCCGGTAATCCGTATTTGTA (site GGTTTCACTTA) , state whether its recombinant UMI read abundance (log10) is at least 0.5.
t

Please indicate if the recorded recombinant UMI read abundance (log10) for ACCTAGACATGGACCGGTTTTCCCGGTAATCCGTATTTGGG (site ACCTAGACTCT) meets or exceeds 0.5.
f

Determine whether this sequence has recombinant UMI read abundance (log10) no lower than 0.5: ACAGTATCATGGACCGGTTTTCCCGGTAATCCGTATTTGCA (site ACTGTGTCTTG)
t

Could you please find out whether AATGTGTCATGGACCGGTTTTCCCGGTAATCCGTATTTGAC (site AATGTATCTGT) has recombinant UMI read abundance (log10) that meets 0.5 or exceeds it?
t

Quick check: does CTGGAACCATGGACCGGTTTTCCCGGTAATCCGTATTTGCA (site CTGGAAACTTG) have recombinant UMI read abundance (log10) greater than or equal to 0.5?
f

Assess whether reported recombinant UMI read abundance (log10) for TACTTGGCATGGACCGGTTTTCCCGGTAATCCGTATTTGCT (site TACTTGACTAG) sits at 0.5 or higher.
f

Continuing:
hey, is recombinant UMI read abundance (log10) for this one >= 0.5? GGATGCACATGGACCGGTTTTCCCGGTAATCCGTATTTGTA (site GGATGCACTTA)
t

Dear colleague, could you confirm whether TACGGACCATGGACCGGTTTTCCCGGTAATCCGTATTTGTC (site TACGGACCTGA) has recombinant UMI read abundance (log10) at or above 0.5?
f

Hi, just wondering whether ACTACTGCATGGACCGGTTTTCCCGGTAATCCGTATTTGGT (site ACTATTGCTAC) shows recombinant UMI read abundance (log10) of 0.5 or higher.
f

hey, is recombinant UMI read abundance (log10) for this one >= 0.5? CGCGGAACATGGACCGGTTTTCCCGGTAATCCGTATTTGTT (site CGCGGAACTAA)
t

Record GAAGCAACATGGACCGGTTTTCCCGGTAATCCGTATTTGCC (site GAAGCAACTGG) ; criterion: recombinant UMI read abundance (log10) no lower than 0.5. Met?
t

Dear colleague, could you confirm whether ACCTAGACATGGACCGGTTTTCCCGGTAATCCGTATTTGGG (site ACGTAGACTCC) has recombinant UMI read abundance (log10) at or above 0.5?
f

# bool: recombinant UMI read abundance (log10) of TCCACCGCATGGACCGGTTTTCCCGGTAATCCGTATTTGAG (site TCCACCGCTCC) >= 0.5
f

Form field: recombinant UMI read abundance (log10) at least 0.5? Entry: ACACGGACATGGACCGGTTTTCCCGGTAATCCGTATTTGGC (site ACACGGACTGC)
t

Say whether ATGTAGGCATGGACCGGTTTTCCCGGTAATCCGTATTTGGT (site ATGTAGGCTAC) shows recombinant UMI read abundance (log10) of 0.5 or more.
t

Evaluate TGCCAGGCATGGACCGGTTTTCCCGGTAATCCGTATTTGGT (site TGCGAGGCTAC) : recombinant UMI read abundance (log10) at minimum 0.5?
f

Please check the record GAAGCTTCATGGACCGGTTTTCCCGGTAATCCGTATTTGTT (site GAAGGTTCTAA) and state if its recombinant UMI read abundance (log10) is at or above 0.5.
f

I'd appreciate it if you could say whether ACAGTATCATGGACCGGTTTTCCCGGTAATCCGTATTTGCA (site ATAGTAGCTTG) has recombinant UMI read abundance (log10) at least equal to 0.5.
f

# bool: recombinant UMI read abundance (log10) of CTTCTCTCATGGACCGGTTTTCCCGGTAATCCGTATTTGCA (site CTTCTCTCTTC) >= 0.5
f

Kindly determine if recombinant UMI read abundance (log10) recorded for TCCTTCTCATGGACCGGTTTTCCCGGTAATCCGTATTTGGG (site TCCTTCTCTCC) is above or exactly 0.5.
f

Decide: is the reported value of recombinant UMI read abundance (log10) for CCCATATCATGGACCGGTTTTCCCGGTAATCCGTATTTGTA (site CCCATATCTGA) equal to or greater than 0.5?
f

Kindly determine if recombinant UMI read abundance (log10) recorded for GCGCAAACATGGACCGGTTTTCCCGGTAATCCGTATTTGCT (site GCGAAAACTAG) is above or exactly 0.5.
f

Kindly determine if recombinant UMI read abundance (log10) recorded for CGGGATTCATGGACCGGTTTTCCCGGTAATCCGTATTTGCC (site CGGGAATCTGG) is above or exactly 0.5.
t

Threshold query (recombinant UMI read abundance (log10) >= 0.5) on GTAATAACATGGACCGGTTTTCCCGGTAATCCGTATTTGGG (site GTAATAACTCC)
t

Evaluate CCCCGTCCATGGACCGGTTTTCCCGGTAATCCGTATTTGCA (site CCCAGTCCTTG) : recombinant UMI read abundance (log10) at minimum 0.5?
f

All values here come from the supplement of paper PMC11208160.
